Source: paper PMC9551036

Assay: Pharmacokinetic analyses in mouse
Assay type: in vivo
Conditions: NMRI, mouse, plasma, po, 100 mg/kg, NMRI mice, p.o., 100 mg/kg; read-out: AUC0-inf
PROPERTY NAME: AUC(0-inf) (µM·h)
Hi! Could you send only the number? It should be in µM·h, unit omitted.

input: Value lookup for AUC(0-inf); key = "Cc1ncsc1-c1ccc([C@H](CCCCCN2CCC(c3ccc4c(c3)n(C3CCCC3)c3nc(=O)c5c(Br)cccc5n43)CC2)NC(=O)[C@@H]2C[C@@H](O)CN2C(=O)[C@@H](NC(=O)C2(F)CC2)C(C)(C)C)cc1"
output: 39

###

Test system: PBRM1BD5
Experiment: TR-FRET ternary complex affinity and cooperativity, PBRM1
Type: binding
Settings: ratio TR-FRET EC50 / TR-FRET EC50 +VCB measured in the same run, PBRM1BD5
Labels assigned by cooperativity α (PBRM1BD) range: c1: < 3; c2: ≥ 3 and < 10; c3: ≥ 10

Cc1ncsc1-c1ccc(CNC(=O)[C@@H]2C[C@H](O)CN2C(=O)[C@@H](NC(=O)C2(F)CC2)C(C)(C)C)c(OCCN2CCC(c3ccc4c(c3)n(C3CCCC3)c3nc(=O)c5c(Br)cccc5n43)CC2)c1 : c1
Cc1ncsc1-c1ccc([C@H](CCCCN2CCC(c3ccc4c(c3)n(C3CCCC3)c3nc(=O)c5c(Br)cccc5n43)CC2)NC(=O)[C@@H]2C[C@@H](O)CN2C(=O)[C@@H](NC(=O)C2(F)CC2)C(C)(C)C)cc1 : c3

input: Exercise: read the entry "Cc1ncsc1-c1ccc([C@H](CC[C@@H](C)CCN2CCC(c3ccc4c(c3)n(C3CCCC3)c3nc(=O)c5c(Br)cccc5n43)CC2)NC(=O)[C@@H]2C[C@@H](O)CN2C(=O)[C@@H](NC(=O)C2(F)CC2)C(C)(C)C)cc1" and state which class it falls under.
output: c3

input: Exercise: read the entry "Cc1ncsc1-c1ccc(CNC(=O)[C@@H]2C[C@@H](O)CN2C(=O)[C@@H](NC(=O)C2(F)CC2)C(C)(C)C)c(OCCCCN2CCC(c3ccc4c(c3)n(C3CCCC3)c3nc(=O)c5c(Br)cccc5n43)CC2)c1" and state which class it falls under.
output: c1

input: Exercise: read the entry "Cc1ncsc1-c1ccc([C@H](COCCCN2CCC(c3ccc4c(c3)n(C3CCCC3)c3nc(=O)c5c(Br)cccc5n43)CC2)NC(=O)[C@@H]2C[C@@H](O)CN2C(=O)[C@@H](NC(=O)C2(F)CC2)C(C)(C)C)cc1" and state which class it falls under.
output: c3

input: Exercise: read the entry Cc1ncsc1-c1ccc([C@H](COC(C)CN2CCC(c3ccc4c(c3)n(C3CCCC3)c3nc(=O)c5c(Br)cccc5n43)CC2)NC(=O)[C@@H]2C[C@@H](O)CN2C(=O)[C@@H](NC(=O)C2(N(C)C)CC2)C(C)(C)C)cc1 (stereo partly drawn) and state which class it falls under.
output: c2

input: Exercise: read the entry "Cc1ncsc1-c1ccc(CNC(=O)[C@@H]2C[C@@H](O)CN2C(=O)[C@@H](NC(=O)C2(F)CC2)C(C)(C)C)c(OCCOCCOCCOCCN2CCC(c3ccc4c(c3)n(C3CCCC3)c3nc(=O)c5c(Br)cccc5n43)CC2)c1" and state which class it falls under.
output: c1

input: Exercise: read the entry "Cc1ncsc1-c1ccc([C@H](CCCCCN2CCC(c3ccc4c(c3)n(C3CCCC3)c3nc(=O)c5c(Br)cccc5n43)CC2)NC(=O)[C@@H]2C[C@@H](O)CN2C(=O)[C@@H](NC(=O)C2(F)CC2)C(C)(C)C)cc1" and state which class it falls under.
output: c3

input: Exercise: read the entry "Cc1ncsc1-c1ccc(CNC(=O)[C@@H]2C[C@@H](O)CN2C(=O)[C@@H](NC(=O)C2(F)CC2)C(C)(C)C)c(OCCN2CCC(c3ccc4c(c3)n(C3CCCC3)c3nc(=O)c5c(Br)cccc5n43)CC2)c1" and state which class it falls under.
output: c1

input: Exercise: read the entry "Cc1ncsc1-c1ccc([C@H](CCC(C)(C)CCN2CCC(c3ccc4c(c3)n(C3CCCC3)c3nc(=O)c5c(Br)cccc5n43)CC2)NC(=O)[C@@H]2C[C@@H](O)CN2C(=O)[C@@H](NC(=O)C2(F)CC2)C(C)(C)C)cc1" and state which class it falls under.
output: c3

input: Exercise: read the entry Cc1ncsc1-c1ccc(C(CCC(C)CCN2CCC(c3ccc4c(c3)n(C3CCCC3)c3nc(=O)c5c(Br)cccc5n43)CC2)NC(=O)C2CC(O)CN2C(=O)C(NC(=O)C2(F)CC2)C(C)(C)C)cc1 (stereo not drawn) and state which class it falls under.
output: c3

input: Exercise: read the entry "Cc1ncsc1-c1ccc([C@H](COC(C)(C)CN2CCC(c3ccc4c(c3)n(C3CCCC3)c3nc(=O)c5c(Br)cccc5n43)CC2)NC(=O)[C@@H]2C[C@@H](O)CN2C(=O)[C@@H](NC(=O)C2(F)CC2)C(C)(C)C)cc1" and state which class it falls under.
output: c2
